Cited source for all entries: patent US6620828B2

target: CDK2/Cyclin A complex (Homo sapiens, UniProt P24941); assay: CDK2/Cyclin A assay; format: biochemical; conditions: Table 2
Recorded Ki determines the label; the label ranges are A: < 0.7 µM; B: ≥ 0.7 µM and < 3 µM; C: ≥ 3 µM

Quick check: band for COc1cc(Nc2nc(N)c(-c3nc(-c4cccc(O)c4)cs3)s2)cc(OC)c1OC [A(17)]
B

Quick check: band for CCOC(=O)c1csc(-c2sc(Nc3ccc(S(N)(=O)=O)cc3)nc2N)n1 [A(68)]
A

Quick check: band for Nc1nc(N)c(-c2nc(C(=O)c3ccccc3)cs2)s1 [E(4)]
C

Quick check: band for Nc1nc(Nc2ccc(S(N)(=O)=O)cc2)sc1-c1nc(-c2cccc(C(=O)O)c2)cs1 [A(21)]
C

Quick check: band for Cc1ccc(-c2csc(-c3sc(Nc4ccc(S(N)(=O)=O)cc4)nc3N)n2)cc1 [A(24)]
C

Quick check: band for COc1ccc(-c2csc(-c3sc(Nc4ccc(S(N)(=O)=O)cc4)nc3N)n2)cc1 [A(2)]
B

Quick check: band for Nc1cccc(-c2csc(-c3sc(Nc4ccc(S(N)(=O)=O)cc4)nc3N)n2)c1 [C(3)]
B

Quick check: band for Nc1nc(Nc2ccc(S(N)(=O)=O)cc2)sc1-c1nc(O)cs1 [H(1)]
A

====

target: CDK4/Cyclin D3 complex (Homo sapiens, UniProt P11802); construct: made in house; host or cells: insect cells co-infected with baculovirus vectors; test: CDK4/Cyclin D assay; assay type: biochemical; conditions: 1.0 μM; combinatorial library compounds
Sequence (P11802 whole entry): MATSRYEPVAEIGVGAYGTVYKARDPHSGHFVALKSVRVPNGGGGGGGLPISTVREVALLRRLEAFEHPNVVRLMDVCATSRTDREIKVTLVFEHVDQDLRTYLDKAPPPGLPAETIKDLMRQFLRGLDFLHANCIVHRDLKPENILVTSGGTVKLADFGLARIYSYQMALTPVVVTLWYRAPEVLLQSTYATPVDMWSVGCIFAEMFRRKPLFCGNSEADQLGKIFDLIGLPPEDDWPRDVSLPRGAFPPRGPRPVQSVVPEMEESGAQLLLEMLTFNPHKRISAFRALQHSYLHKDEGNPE
Sequence (P30281 whole entry partner): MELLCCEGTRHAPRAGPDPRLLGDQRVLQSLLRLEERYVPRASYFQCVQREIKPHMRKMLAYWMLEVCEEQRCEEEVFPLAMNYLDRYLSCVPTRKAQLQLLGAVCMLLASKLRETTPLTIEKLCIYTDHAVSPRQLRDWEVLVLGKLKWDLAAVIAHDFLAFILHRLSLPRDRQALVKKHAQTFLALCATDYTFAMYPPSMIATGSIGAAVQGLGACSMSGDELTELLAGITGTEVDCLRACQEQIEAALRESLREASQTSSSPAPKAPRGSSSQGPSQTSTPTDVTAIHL
property_measured: inhibition at 1 µM (%)
Report the value in % with no unit label.

Look over these answered cases.
- Cc1ccc(-c2csc(-c3sc(Nc4ccc(S(N)(=O)=O)cc4)nc3N)n2)cc1 [drawing 395]: -9.6
- CC(C)c1ccc(Nc2nc(N)c(-c3nc(-c4ccccc4OC(=O)c4ccccc4)cs3)s2)cc1: 56.1
- CC(C)c1ccc(Nc2nc(N)c(-c3nc(-c4ccc5ccccc5c4)cs3)s2)cc1: 51.2
- CC(C)c1ccc(Nc2nc(N)c(-c3nc(-c4ccc(C#N)cc4)cs3)s2)cc1: 58.4
- CN(C)c1ccc(Nc2nc(N)c(-c3nc(-c4ccc(-c5ccccc5)cc4)cs3)s2)cc1: -12.6

Requested read-out: inhibition at 1 µM. Entry: `CC(=O)Oc1ccccc1-c1csc(-c2sc(Nc3ccc(S(N)(=O)=O)cc3)nc2N)n1`
-4.8

Requested read-out: inhibition at 1 µM. Entry: `Nc1nc(Nc2ccc(S(N)(=O)=O)cc2)sc1-c1nc(-c2cccc(OC(=O)c3ccccc3)c2)cs1`
-1.9

Requested read-out: inhibition at 1 µM. Entry: Cc1c(F)cc(-c2csc(-c3sc(Nc4ccc(S(N)(=O)=O)cc4)nc3N)n2)cc1Cl [drawing 440]
75

====

target: FGF-R1 (Homo sapiens, UniProt P11362, C488A/C584S/L457V); construct: starting from the endogenous methionine residue 456 to glutamate 766; made in house; host or cells: baculovirus vector expression system; experiment: FGF-R spectrophotometric assay; format: biochemical; settings: Table 3; % inh @ 1 uM; read-out: FGF-P Ki (nM) (% inh @ 1 uM)
Sequence (P11362 456-766 L457V/C488A/C584S): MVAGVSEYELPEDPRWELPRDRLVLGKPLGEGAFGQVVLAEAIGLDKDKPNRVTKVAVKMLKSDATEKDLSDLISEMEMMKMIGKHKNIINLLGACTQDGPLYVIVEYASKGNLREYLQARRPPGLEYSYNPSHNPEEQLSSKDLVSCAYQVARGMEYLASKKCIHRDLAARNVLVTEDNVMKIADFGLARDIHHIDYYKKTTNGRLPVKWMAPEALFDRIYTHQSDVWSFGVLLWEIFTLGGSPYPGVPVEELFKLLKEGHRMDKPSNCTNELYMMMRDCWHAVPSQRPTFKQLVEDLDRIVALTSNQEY
property_measured: inhibition at 1 µM (%)
Report the value in % with no unit label.

Look over these answered cases.
* COc1cc(Nc2nc(N)c(-c3nc(-c4cc(NC(=O)OC(C)(C)C)ccc4Cl)no3)s2)cc(OC)c1OC | 52
* CNC(=O)Nc1nc(N)c(-c2nc(-c3cc(NC(=O)c4cccc(OC)c4)c(F)cc3F)no2)s1 | 9
* COc1cccc(C(=O)Nc2ccc(Cl)c(-c3noc(-c4sc(Nc5cc(OC)c(OC)c(OC)c5)nc4N)n3)c2)c1 | 37
* COc1cc(Nc2nc(N)c(-c3nc(-c4cccc(NC(=O)c5cnc6ccccc6c5)c4)cs3)s2)cc(OC)c1OC | 10

Requested read-out: inhibition at 1 µM. Entry: `COc1cc(Nc2nc(N)c(-c3nc(-c4cc(NC(=O)c5cccc(Cl)c5)c(F)cc4Cl)no3)s2)cc(OC)c1OC`
78

Requested read-out: inhibition at 1 µM. Entry: `COc1cc(Nc2nc(N)c(-c3nc(-c4cc(NC(=O)c5cccc(Cl)c5)ccc4C)no3)s2)cc(OC)c1OC`
64

Requested read-out: inhibition at 1 µM. Entry: `COc1cccc(C(=O)Nc2cc(-c3noc(-c4sc(Nc5cc(OC)c(OC)c(OC)c5)nc4N)n3)c(F)cc2F)c1`
13
